# assayed-system: T1, purified human activated C1s protein, two-chain form (Homo sapiens, UniProt P09871 16-688)
# T1 construct: Purified protein bought from EMD Millipore; Biotin-labeled in the clone screen; also called active C1s; native C1s protein
# T1 sequence: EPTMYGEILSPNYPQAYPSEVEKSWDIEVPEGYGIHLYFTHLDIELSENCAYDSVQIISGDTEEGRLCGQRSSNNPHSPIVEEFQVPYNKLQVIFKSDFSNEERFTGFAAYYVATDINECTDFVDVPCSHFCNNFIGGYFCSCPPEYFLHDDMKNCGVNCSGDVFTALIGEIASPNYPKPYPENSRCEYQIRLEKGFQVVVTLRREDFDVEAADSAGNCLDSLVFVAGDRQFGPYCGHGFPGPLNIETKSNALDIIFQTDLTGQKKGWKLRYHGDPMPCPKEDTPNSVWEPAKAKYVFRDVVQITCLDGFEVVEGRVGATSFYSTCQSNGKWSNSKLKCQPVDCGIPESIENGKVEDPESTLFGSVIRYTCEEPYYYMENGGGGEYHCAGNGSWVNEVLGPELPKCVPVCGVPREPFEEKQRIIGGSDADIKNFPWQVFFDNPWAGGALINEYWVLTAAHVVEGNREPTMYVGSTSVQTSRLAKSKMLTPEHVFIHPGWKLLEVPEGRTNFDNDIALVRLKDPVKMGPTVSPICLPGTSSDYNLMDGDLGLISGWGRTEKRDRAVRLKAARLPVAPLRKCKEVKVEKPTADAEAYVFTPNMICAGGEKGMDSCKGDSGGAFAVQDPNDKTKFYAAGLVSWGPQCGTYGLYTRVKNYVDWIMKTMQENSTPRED
# procedure-summary: bio-layer interferometry (BLI), kinetic analysis
observation-type: kon (M⁻¹ s⁻¹)
Unit M⁻¹ s⁻¹ implied. Number only.

1) antibody IPN-M10 (antibody, V domains shown, Mouse monoclonal antibody (NZBW hybridoma)) VH: QVQLQQPGAELVRPGASVKLSCKVSGYTFTRYWMHWVKQRPGQGLEWIGEINPSNSDTDYNEEFKSKATLTVDKSSSTAYMHLSSLTSEDSAVYYCTIDDSVYGWFAYWGQGTLVTVSA VL: DIVITQSPAIMSASPGERVTMTCSASSSISYMHWYHQKPGTSPKRWIYDTSKLASGVPARFSGSGSGTSYSLTISSMEAEDAATYYCHQRSSFPTFGAGTKLELK    608000
2) antibody IPN-M11 (antibody, V domains shown, Mouse monoclonal antibody (NZBW hybridoma)) VH: QVQLQQSGAELVRPGASVKLSCTASGFNIKDDYIHWVKQRPEQGLEWIGRIDPADDHTKYAPKFQDKATMTADTSSNTACLQLNSLTSEDTAVYYCAIYGSGWAWFPYWGQGTLVSVSA VL: DIVMTQSPDYLAVSLGQRAPISCKASQSVDYDGDSYMNWYQQKPGQPPKLLIYAASNLEFGIPTRFSGSGFGTDFPLNIHPVEEEDAATYYCQQSNEDPWTFGGGPKLEIK    864000
3) antibody IPN-M1 (antibody, V domains shown, Mouse monoclonal antibody (NZBW hybridoma); of the 17, thirteen were IgG2a, one IgG2b, three IgG1; Same VL and VH as IPN-M3 and IPN-M13) VH: EVQLQQSGAELVRPGASVKLSCTASGFNIKDDYIHWVKQRPEQGLEWIGRIDPADDHTKYAPKFQDKATMTADTSSNTACLQLNSLTSEDTAVYYCAIYGSGWAWFPYWGQGTLVSVSA VL: DIVLTQSTDYLAVSLGQRATISCKASQSVDYDGDSYMNWYQQKPGQPPKLLIYAASNLESGIPARFSGSGSGTDFTLNIHPVEEEDAATYYCQQSNEDPWTFGGGTKLEIK    817000
4) antibody IPN-M24 (antibody, V domains shown, Mouse monoclonal antibody (NZBW hybridoma)) VH: EVKLQQSGAELVRPGVSVKISCKVSGYTFTDYAMHCVKQSHAKSLEWIGVISIYNGDASYNQKFKDKATMTVDKSSSTSYMDLARLTSEESAVYNCVREAPYLITTVFYAMDYWGQGTSVTVSS VL: DIVMTQSPAIMSASPGEKVTMTCSANSSISYMHWYQQKPGTSPKRWIYDTSKLASGVPTRFSGSGSGTSYSLTISSMEAEDAATYYCHQRSFYLTFGSGTKLEIK    492000
5) antibody IPN-M28 (antibody, V domains shown, Mouse monoclonal antibody (NZBW hybridoma)) VH: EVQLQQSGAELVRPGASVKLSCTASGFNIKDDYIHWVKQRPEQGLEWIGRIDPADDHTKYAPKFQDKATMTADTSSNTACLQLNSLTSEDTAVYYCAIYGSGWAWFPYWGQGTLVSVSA VL: DIVLTQTPDYLAVSLGQRATISCKASQSVDYDGDSYMNWYQQKPGQPPKLLIYAASNLESGIPARFSGSGSGTDFTLNIHPVEEEDAATYYCQQSNEDPWTFGGGTKLEIK    914000

Recall and state the measured kon for antibody IPN-M29 (antibody, V domains shown, Mouse monoclonal antibody (NZBW hybridoma)) VH: EVQLQQSGPELVKPGASVKISCKASGYSFTGFYMQWVKQSPEKNLEWIGEINPTTGDETYNQKFQAKATLTVDKSSSTAYMQLKSLTSEDSAVYFCASDFYDGSFAWFEYWGKDYLTVSA VL: DIVLTQSPVIMSASPGEKVTMTCSASSSISYIHWYQQKPGTSPKRWIYDTSKLASGVPARFSGSGSGTSYSLTISSMEAEDAATYYCHQRSSYLTFGSGTKLEIK .
463000

Recall and state the measured kon for antibody IPN-M18 (antibody, V domains shown, Mouse monoclonal antibody (NZBW hybridoma)) VH: EVQLQQSGPELVKPGASVKISCKASGYSFTGYYIHWVKQSPEKSLEWIGEINPTTNDTTYNQKFKAKATLTVDKSSNTAYMQLKSLTSEDSAVYYCSRDISGPAWFAYWGQGTLVTVSA VL: DIVLTQTTAIMSASPGEKVTMTCSASSSISYMYWFQQKPGTSPKRWIYDTSKLASGVPARFSGSGSGTSYSLTISTMEAEDAATYYCHQRSSDPTFGGGTKLEINR .
517000

Recall and state the measured kon for antibody IPN-M2 (antibody, V domains shown, Mouse monoclonal antibody (NZBW hybridoma); Same VL and VH as IPN-M8) VH: EVKLQQSGAELVRPGASVKLSCTASGFNIKDDYIHWVKQRPEQGLEWIGRIDPADGHTKYAPKFQVKATITADTSSNTAYLQLSSLTSEDTAVYYCARYGYGREVFDYWGQGTTLTVSS VL: DIVLTQSPASLAVSLGQRATISCKASQSVDYDGDSYMNWYQQKTGQPPKILIYDASNLESGIPARFSGSGSGTDFTLNIHPVEEEDAAIYYCQQSNEDPWTFGGGTKLEIK .
957000
